# Tested on: 966289-007-R4-J1-PDC complex spheroid viability;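 note: spheroids exposed to the agents for seven days before readout; percent viability relative to DMSO vehicle control wells taken as 100%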
# MEASUREMENT NOTES: Anticancer human tumor 966289-007-R4-J1-PDC patient-derived pancreatic adenocarcinoma cell line growth inhibition [GQUAD]
# ASSAY SETUP: second compound 10 µM; first compound 0.1 µM; hits give low values
PROPERTY: viability, T/C

CCCS(=O)(=O)Nc1ccc(F)c(C(=O)c2c[nH]c3ncc(-c4ccc(Cl)cc4)cc23)c1F + Cc1cnc(CNC(=O)c2c(=O)c3ccc(N4CCCN(C)CC4)nc3n3c2sc2ccccc23)cn1 :: 0.11%
Nc1ccn(C2OC(CO)C(O)C2(F)F)c(=O)n1 (stereo unspecified) + Cc1cnc(CNC(=O)c2c(=O)c3ccc(N4CCCN(C)CC4)nc3n3c2sc2ccccc23)cn1 :: 0.07%
CC1COCCN1c1cc(C2(O)CC3CCC(C2)O3)c2cnn(-c3ccn[nH]3)c2n1 (stereo unspecified) + Cc1[nH]c2ccc(F)cc2c1-c1nc2c3cccnc3c3ncccc3c2[nH]1 :: 18.7%
CC(C)(O)C1CCC(Nc2ccc3ncc(-c4cccc(C(F)(F)F)c4)n3n2)CC1 (stereo unspecified) + Cc1cnc(CNC(=O)c2c(=O)c3ccc(N4CCCN(C)CC4)nc3n3c2sc2ccccc23)cn1 :: 0.09%
C#Cc1c(F)ccc2cc(O)cc(-c3ncc4c(N5CC6CCC(C5)N6)nc(OCC56CCCN5CC(F)C6)nc4c3F)c12 (stereo unspecified) + Cc1cnc(CNC(=O)c2c(=O)c3ccc(N4CCCN(C)CC4)nc3n3c2sc2ccccc23)cn1 :: 0.14%
O=C(NO)c1cnc(N2CCN(S(=O)(=O)c3ccc4ccccc4c3)CC2)nc1 + CN(C)c1ccc(Nc2c3ccc(NC(=O)CCN4CCCC4)cc3nc3cc(NC(=O)CCN4CCCC4)ccc23)cc1 :: 106%

INPUT: Notebook entry, 966289-007-R4-J1-PDC complex spheroid viability assay: viability, T/C of C=CCn1c(=O)c2cnc(Nc3ccc(N4CCN(C)CC4)cc3)nc2n1-c1cccc(C(C)(C)O)n1 + Cc1cnc(CNC(=O)c2c(=O)c3ccc(N4CCCN(C)CC4)nc3n3c2sc2ccccc23)cn1 = ?
OUTPUT: 0.11%

INPUT: Quick one: CC(C)n1c(=O)n(C)c2cnc3cc(F)c(-c4ccc(OCCCN5CCCCC5)nc4)cc3c21 + Cc1[nH]c2ccc(F)cc2c1-c1nc2c3cccnc3c3ncccc3c2[nH]1
OUTPUT: 104%

INPUT: Quick one: O=c1[nH]cc(F)c(=O)[nH]1 + Cc1cnc(CNC(=O)c2c(=O)c3ccc(N4CCCN(C)CC4)nc3n3c2sc2ccccc23)cn1
OUTPUT: 0.08%

INPUT: Quick one: CC1COCCN1c1cc(C2(S(C)(=N)=O)CC2)nc(-c2ccnc3[nH]ccc23)n1 (stereo unspecified) + CN(C)c1ccc(Nc2c3ccc(NC(=O)CCN4CCCC4)cc3nc3cc(NC(=O)CCN4CCCC4)ccc23)cc1
OUTPUT: 101%

INPUT: Quick one: Cc1cccc(N(C)C(=O)C2C(O)CCN2c2nc(C)cc(C(F)(F)F)c2C#N)c1 (stereo unspecified) + Cc1[nH]c2ccc(F)cc2c1-c1nc2c3cccnc3c3ncccc3c2[nH]1
OUTPUT: 102%

Data credit: PubChem BioAssay AID2060488
